experiment: Stability of peptides in human liver microsomes; assay type: in vitro ADME; settings: human, microsomes
Where a SMILES comes first, the peptide text is derived from it. [ ]: non-standard residue; d: D form. ξ: configuration not given here. ξBip(2'-Et-4'-OMe) = CCc1cc(OC)ccc1-c1ccc(CC(N)C(=O)O)cc1; αMePhe(2,6-F2) = C[C@](N)(Cc1c(F)cccc1F)C(=O)O; ξαMePhe(2,6-F2) = CC(N)(Cc1c(F)cccc1F)C(=O)O; αMePhe(2-F) = C[C@](N)(Cc1ccccc1F)C(=O)O; ξαMe(hhPhe) = CC(N)(CCCc1ccccc1)C(=O)O; ξαMePhe(2-F) = CC(N)(Cc1ccccc1F)C(=O)O; ξαMeW = CC(N)(Cc1c[nH]c2ccccc12)C(=O)O; hhPhe = N[C@@H](CCCc1ccccc1)C(=O)O; hArg = N=C(N)NCCCC[C@H](N)C(=O)O; hCit = NC(=O)NCCCC[C@H](N)C(=O)O; ξαMeF = CC(N)(Cc1ccccc1)C(=O)O; ξαMeNle = CCCCC(C)(N)C(=O)O; Nle = CCCC[C@H](N)C(=O)O; Orn = NCCC[C@H](N)C(=O)O; ξαMeP = CC1(C(=O)O)CCCN1; Ac5c = NC1(C(=O)O)CCCC1; Ac3c = NC1(C(=O)O)CC1; Aib = CC(C)(N)C(=O)O
Measured half-life accompanies every entry in the list below.
Give the number; h is assumed, so skip it.

- compound: "CCCC[C@H](NC(=O)[C@](C)(Cc1c(F)cccc1F)NC(=O)[C@H](CCC(N)=O)NC(=O)[C@@H](NC(=O)[C@H](CCC(=O)O)NC(=O)C(C)(C)NC(=O)[C@@H](NC(=O)C1(N)CCCC1)C(C)C)[C@@H](C)CC)C(=O)N[C@@H](Cc1c[nH]cn1)C(=O)N[C@@H](CCC(N)=O)C(=O)N[C@@H](CCCCNC(=N)N)C(=O)NC(C)(C)C(=O)N[C@@H](CCCCN)C(=O)N[C@@](C)(Cc1ccccc1F)C(N)=O [Seq. ID. 85] (H-[Ac5c]V[Aib]EIQ[αMePhe(2,6-F2)][Nle]HQ[hArg][Aib]K[αMePhe(2-F)]-NH2)"
  half-life, h: 0.5
- compound: "CCCCC(C)(NC(=O)[C@H](CC(C)C)NC(=O)[C@H](CCC(N)=O)NC(=O)[C@@H](NC(=O)[C@H](CCC(=O)O)NC(=O)C(C)(C)NC(=O)[C@@H](NC(=O)C1(N)CC1)C(C)C)[C@@H](C)CC)C(=O)N[C@@H](Cc1c[nH]cn1)C(=O)N[C@@H](CCC(N)=O)C(=O)N[C@@H](CCCCNC(=N)N)C(=O)N[C@@H](C)C(=O)N[C@@H](CCCCNC(=N)N)C(=O)NC(C)(Cc1c[nH]c2ccccc12)C(=O)N[C@@H](CCCc1ccccc1)C(N)=O (some centres unmarked) [Seq. ID. 945] (H-[Ac3c]V[Aib]EIQL[ξαMeNle]HQ[hArg]A[hArg][ξαMeW][hhPhe]-NH2)"
  half-life, h: 0.5
- compound: "CCCC[C@H](NC(=O)C(C)(Cc1ccccc1F)NC(=O)[C@H](CCC(N)=O)NC(=O)[C@@H](NC(=O)[C@H](CCC(=O)O)NC(=O)C(C)(C)NC(=O)[C@@H](NC(=O)C(C)(C)N)C(C)C)[C@@H](C)CC)C(=O)N[C@@H](Cc1c[nH]cn1)C(=O)N[C@@H](CCC(N)=O)C(=O)N[C@@H](CCCCNC(=N)N)C(=O)N[C@@H](C)C(=O)NC(C)(C)C(=O)NC(C)(Cc1ccccc1F)C(N)=O (some centres unmarked) [Seq. ID. 161] (H-[Aib]V[Aib]EIQ[ξαMePhe(2-F)][Nle]HQ[hArg]A[Aib][ξαMePhe(2-F)]-NH2)"
  half-life, h: 1
- compound: "CCCC[C@H](NC(=O)C(C)(Cc1c(F)cccc1F)NC(=O)[C@H](CCC(N)=O)NC(=O)[C@@H](NC(=O)[C@H](CCC(=O)O)NC(=O)C(C)(C)NC(=O)[C@@H](NC(=O)C1(N)CCCC1)C(C)C)[C@@H](C)CC)C(=O)N[C@@H](Cc1c[nH]cn1)C(=O)N[C@@H](CCC(N)=O)C(=O)N[C@@H](CCCCNC(N)=O)C(=O)NC(C)(C)C(=O)NC(C)(C)C(=O)NC(C)(Cc1c(F)cccc1F)C(N)=O (some centres unmarked) [Seq. ID. 440] (H-[Ac5c]V[Aib]EIQ[ξαMePhe(2,6-F2)][Nle]HQ[hCit][Aib][Aib][ξαMePhe(2,6-F2)]-NH2)"
  half-life, h: 2
- compound: "CCCC[C@H](NC(=O)C(C)(Cc1ccccc1F)NC(=O)[C@H](CCC(N)=O)NC(=O)[C@@H](NC(=O)[C@H](CCC(=O)O)NC(=O)C1(NC(=O)[C@@H](NC(=O)C2(N)CCCC2)C(C)C)CCCC1)[C@@H](C)CC)C(=O)N[C@@H](Cc1c[nH]cn1)C(=O)N[C@@H](CCC(N)=O)C(=O)N[C@@H](CCCCNC(=N)N)C(=O)N1CCCC1(C)C(=O)N[C@@H](CCCCN)C(=O)NC(C)(Cc1ccccc1)C(N)=O (some centres unmarked) [Seq. ID. 34] (H-[Ac5c]V[Ac5c]EIQ[ξαMePhe(2-F)][Nle]HQ[hArg][ξαMeP]K[ξαMeF]-NH2)"
  half-life, h: 1
- compound: "CCCC[C@H](NC(=O)[C@H](CC(C)C)NC(=O)[C@H](CCC(N)=O)NC(=O)[C@@H](NC(=O)[C@H](CCC(=O)O)NC(=O)C(C)(C)NC(=O)[C@@H](NC(=O)C(C)(C)N)C(C)C)[C@@H](C)CC)C(=O)N[C@@H](Cc1c[nH]cn1)C(=O)N[C@@H](CCC(N)=O)C(=O)N[C@@H](CCCN)C(=O)N[C@@H](C)C(=O)NC(C)(C)C(=O)NC(Cc1ccc(-c2ccc(OC)cc2CC)cc1)C(=O)N[C@@H](CCCc1ccccc1)C(N)=O (some centres unmarked) [Seq. ID. 750] (H-[Aib]V[Aib]EIQL[Nle]HQ[Orn]A[Aib][ξBip(2'-Et-4'-OMe)][hhPhe]-NH2)"
  half-life, h: 2
- compound: "CCCCC(C)(NC(=O)[C@H](CC(C)C)NC(=O)[C@H](CCC(N)=O)NC(=O)[C@@H](NC(=O)[C@H](CCC(=O)O)NC(=O)C(C)(C)NC(=O)[C@@H](NC(=O)C(C)(C)N)C(C)C)[C@@H](C)CC)C(=O)N[C@@H](Cc1c[nH]cn1)C(=O)N[C@@H](CCC(N)=O)C(=O)N[C@@H](CCCCNC(=N)N)C(=O)N[C@@H](C)C(=O)N[C@@H](CCCCNC(=N)N)C(=O)NC(C)(Cc1c[nH]c2ccccc12)C(=O)NC(C)(CCCc1ccccc1)C(N)=O (some centres unmarked) [Seq. ID. 949] (H-[Aib]V[Aib]EIQL[ξαMeNle]HQ[hArg]A[hArg][ξαMeW][ξαMe(hhPhe)]-NH2)"
  half-life, h: 0.5

Now examine the next entry.
The reported value for CCCC[C@H](NC(=O)C(C)(Cc1c(F)cccc1F)NC(=O)[C@H](CCC(N)=O)NC(=O)[C@@H](NC(=O)[C@H](CCC(=O)O)NC(=O)C(C)(C)NC(=O)[C@@H](NC(=O)C1(N)CCCC1)C(C)C)[C@@H](C)CC)C(=O)N[C@@H](Cc1c[nH]cn1)C(=O)N[C@@H](CCC(N)=O)C(=O)NC(C)(C)C(=O)NC(C)(C)C(=O)NC(C)(C)C(=O)NC(C)(Cc1ccccc1F)C(N)=O (some centres unmarked) [Seq. ID. 560] (H-[Ac5c]V[Aib]EIQ[ξαMePhe(2,6-F2)][Nle]HQ[Aib][Aib][Aib][ξαMePhe(2-F)]-NH2) in terms of half-life is 1

Each recorded value in this set is attributed to patent US8383581B2.
